System: NRG-mice bearing LNCaP tumors
Test: Biodistribution (and PET/SPECT imaging) in NRG-mice bearing LNCaP tumors
Assay type: in vivo
Settings: 3 h p.i., Avg
*1 amine or outer side, *2 acyl side, *3 side chain or, on linkers, in order; H or OH if unused. Where a SMILES comes first, the peptide text is derived from it. [ ]: non-standard residue; d: D form. The star is where a group is joined. ξ: configuration not given here. ξLys(Nα-CO-ξAad) = O=C(O)CCCC(NC(=O)NC(CCCCN*)C(=O)O)C(=O)O; DOTA = O=C(O)CN1CCN(CC(=O)O)CCN(CC(=O)*)CCN(CC(=O)O)CC1; Butanoyl(4-(4-MeO-phenyl)) = COc1ccc(CCCC(=O)*)cc1; ξAla(9-anthryl) = NC(Cc1c2ccccc2cc2ccccc12)C(=O)O; X1 = O=C(C1CCC(CN[*:1])CC1)[*:2]; ξK = NCCCCC(N)C(=O)O
property.measured: Biodistribution: Salivary gland (% ID/g)
All answers are understood in % ID/g, so give the number only.

[
  {
    "compound": "COc1ccc(CCCC(=O)NCC(=O)NC(CCCCNC(=O)CN2CCN(CC(=O)[O-])CCN(CC(=O)[O-])CCN(CC(=O)[O-])CC2)C(=O)NCC(=O)NCC2CCC(C(=O)NC(Cc3c4ccccc4cc4ccccc34)C(=O)NCCCCC(NC(=O)NC(CCCC(=O)O)C(=O)O)C(=O)O)CC2)cc1.[68Ga+3] (centres unmarked) [^68Ga-CCZ02009] ({Butanoyl(4-(4-MeO-phenyl))}-G[ξK](DOTA)G[X1][ξAla(9-anthryl)]-{ξLys(Nα-CO-ξAad)})",
    "property.measured": "Biodistribution: Salivary gland",
    "recorded.number": 3.82
  }
]

State, for NRG-mice bearing LNCaP tumors, measured Biodistribution: Salivary gland of the compound listed here: COc1ccc(CCCC(=O)NCC(=O)NC(CCCCNC(=O)CN2CCN(CC(=O)[O-])CCN(CC(=O)[O-])CCN(CC(=O)[O-])CC2)CC(=O)NCC2CCC(C(=O)NC(Cc3c4ccccc4cc4ccccc34)C(=O)NCCCCC(NC(=O)NC(CCCC(=O)O)C(=O)O)C(=O)O)CC2)cc1.[68Ga+3] (centres unmarked) [^68Ga-CCZ02015] 2.18

###

Tested on: NRG-mice bearing LNCaP tumors
Assay: Biodistribution (and PET/SPECT imaging) in NRG-mice bearing LNCaP tumors
Assay type: in vivo
Conditions: 24 h p.i., Avg
*1 amine or outer side, *2 acyl side, *3 side chain or, on linkers, in order; H or OH if unused. Where a SMILES comes first, the peptide text is derived from it. [ ]: non-standard residue; d: D form. The star is where a group is joined. ξ: configuration not given here. ξLys(Nα-CO-ξAad) = O=C(O)CCCC(NC(=O)NC(CCCCN*)C(=O)O)C(=O)O; Butanoyl(4-(4-NO2Ph)) = O=C(CCCc1ccc([N+](=O)[O-])cc1)*; DOTA = O=C(O)CN1CCN(CC(=O)O)CCN(CC(=O)*)CCN(CC(=O)O)CC1; Butanoyl(4-(4-MeO-phenyl)) = COc1ccc(CCCC(=O)*)cc1; ξAla(9-anthryl) = NC(Cc1c2ccccc2cc2ccccc12)C(=O)O; X2 = O=C(NC(CCCCN*)C(=O)O)NC(CC(F)C(=O)O)C(=O)O; X1 = O=C(C1CCC(CN[*:1])CC1)[*:2]; ξK = NCCCCC(N)C(=O)O
Reported Biodistribution: Adrenal gland values for the following compounds.
All answers are understood in % ID/g, so give the number only.

[
  {
    "compound": "O=C([O-])CN1CCN(CC(=O)[O-])CCN(CC(=O)NCCCCC(NC(=O)CNC(=O)CCCc2ccc([N+](=O)[O-])cc2)C(=O)NCC(=O)NCC2CCC(C(=O)NC(Cc3c4ccccc4cc4ccccc34)C(=O)NCCCCC(NC(=O)NC(CCCC(=O)O)C(=O)O)C(=O)O)CC2)CCN(CC(=O)[O-])CC1.[177Lu+3] (stereo not drawn) [^177Lu-CCZ02017] ({Butanoyl(4-(4-NO2Ph))}-G[ξK](DOTA)G[X1][ξAla(9-anthryl)]-{ξLys(Nα-CO-ξAad)})",
    "property.measured": "Biodistribution: Adrenal gland",
    "recorded.number": 0.61
  },
  {
    "compound": "COc1ccc(CCCC(=O)NCC(=O)NC(CCCCNC(=O)CN2CCN(CC(=O)[O-])CCN(CC(=O)[O-])CCN(CC(=O)[O-])CC2)C(=O)NCC(=O)NCC2CCC(C(=O)NC(Cc3c4ccccc4cc4ccccc34)C(=O)NCCCCC(NC(=O)NC(CC(F)C(=O)O)C(=O)O)C(=O)O)CC2)cc1.[177Lu+3] (stereo not drawn) [^177Lu-CCZ02008] ({Butanoyl(4-(4-MeO-phenyl))}-G[ξK](DOTA)G[X1][ξAla(9-anthryl)]-X2)",
    "property.measured": "Biodistribution: Adrenal gland",
    "recorded.number": 2.39
  }
]

With those in mind, consider the next compound.
State, for NRG-mice bearing LNCaP tumors, measured Biodistribution: Adrenal gland of the compound listed here: COc1ccc(CCCC(=O)NCC(=O)NC(CCCCNC(=O)CN2CCN(CC(=O)[O-])CCN(CC(=O)[O-])CCN(CC(=O)[O-])CC2)CC(=O)NCC2CCC(C(=O)NC(Cc3c4ccccc4cc4ccccc34)C(=O)NCCCCC(NC(=O)NC(CC(F)C(=O)O)C(=O)O)C(=O)O)CC2)cc1.[177Lu+3] (stereo not drawn) [^177Lu-CCZ02019] 0.54
